# TESTED_TARGET: human constitutive proteasome (Beta5) (Homo sapiens (Human), UniProt P28074)
# PROTOCOL_SUMMARY: Determination of Beta5 activity (fluorescence intensity assay, Suc-LLVY-AMC)
# Format: biochemical
# CONDITIONS: incubation for 20 minutes
pIC50: −log10 of the molar value.
PROPERTY_MEASURED: pIC50

The examples below pair each entry with its known result.
[
  {
    "MOLECULE": "C=CC(=O)N(CC(=O)N[C@@H](C[C@H]1COc2c(C)cccc21)B(O)O)c1ccccc1F [Compound No. 91]",
    "pIC50": "< 5.30"
  },
  {
    "MOLECULE": "C=CC(=O)N(C)CC(=O)N[C@@H](Cc1ccc(C)cc1C)B(O)O [Compound No. 33]",
    "pIC50": "< 5.30"
  },
  {
    "MOLECULE": "C#CC(=O)N(C)CC(=O)N[C@@H](Cc1ccc(C)cc1C)B(O)O [Compound No. 11]",
    "pIC50": "5.30 to 6.30"
  },
  {
    "MOLECULE": "C/C=C/C(=O)N(CC)CC(=O)N[C@@H](Cc1ccc(C)cc1C)B(O)O [Compound No. 23]",
    "pIC50": "5.30 to 6.30"
  },
  {
    "MOLECULE": "C=CC(=O)N(CC)CC(=O)N[C@@H](Cc1ccc(C)cc1)B(O)O [Compound No. 31]",
    "pIC50": "5.30 to 6.30"
  },
  {
    "MOLECULE": "C=CC(=O)N(CC(=O)N[C@@H](Cc1ccc(C)cc1C)B(O)O)c1ccc(OC(F)(F)F)cc1 [Compound No. 9]",
    "pIC50": "5.30 to 6.30"
  },
  {
    "MOLECULE": "C/C=C(\\C)C(=O)N(CC)CC(=O)N[C@@H](Cc1ccc(C)cc1C)B(O)O [Compound No. 22]",
    "pIC50": "< 5.30"
  },
  {
    "MOLECULE": "C=CC(=O)N1CCC[C@H]1C(=O)N[C@@H](Cc1ccc(C)cc1C)B(O)O [Compound No. 58]",
    "pIC50": "< 5.30"
  }
]

The recorded pIC50 for entry C=CC(=O)N(CC(=O)N[C@@H](Cc1ccc(C)cc1C)B(O)O)c1cccc(F)c1 [Compound No. 4] equals 5.30 to 6.30

The molecule listed as C=CC(=O)N(CC(=O)N[C@@H](Cc1ccc(C)cc1C)B(O)O)c1ccccc1 [Compound No. 26] has a reported pIC50 of 5.30 to 6.30

Lab note: measured pIC50 of CC#CC(=O)N(C)CC(=O)N[C@@H](Cc1ccc(C)cc1C)B(O)O [Compound No. 20] was 5.30 to 6.30

Entry Cc1ccc(C[C@H](NC(=O)CN(C)C(=O)/C=C/Cl)B(O)O)c(C)c1 [Compound No. 13] ; pIC50 = 5.30 to 6.30

pIC50 for C=CC(=O)N(CC(=O)N[C@@H](Cc1ccccc1)B(O)O)C(C)C [Compound No. 35] is < 5.30

For reference, reported pIC50 for C=CC(=O)N(CCC)CC(=O)N[C@@H](Cc1ccc(C)c(C)c1)B(O)O [Compound No. 5] stands at < 5.30

Item: C/C=C\C(=O)N(CC)CC(=O)N[C@@H](Cc1ccc(C)cc1C)B(O)O [Compound No. 18] | pIC50: 5.30 to 6.30

// field: pIC50; key: C=CC(=O)N(c1ccccc1)[C@@H](C)C(=O)N[C@@H](Cc1ccc(C)cc1C)B(O)O [Compound No. 46] ; value = < 5.30

====

# TESTED_TARGET: human immuno proteasome (LMP7) (Homo sapiens (Human))
# PROTOCOL_SUMMARY: Determination of LMP7 activity (fluorescence intensity assay, Suc-LLVY-AMC)
# Format: biochemical
# CONDITIONS: incubation for 20 minutes
PROPERTY_MEASURED: IC50

Field: example entries. Status: answers known.
[
  {
    "MOL": "C=CC(=O)N(CCC)CC(=O)N[C@@H](Cc1ccc(C)c(C)c1)B(O)O",
    "PROPERTY_MEASURED": "IC50",
    "DATA_VALUE": "0.05 to 0.5 µM"
  },
  {
    "MOL": "C=C(C)C(=O)N(CC)CC(=O)N[C@@H](Cc1ccc(C)cc1C)B(O)O",
    "PROPERTY_MEASURED": "IC50",
    "DATA_VALUE": "0.05 to 0.5 µM"
  },
  {
    "MOL": "C/C=C/C(=O)N(CC)CC(=O)N[C@@H](Cc1ccc(C)cc1C)B(O)O",
    "PROPERTY_MEASURED": "IC50",
    "DATA_VALUE": "< 0.05 µM"
  },
  {
    "MOL": "C=CS(=O)(=O)N(C)CC(=O)N[C@@H](Cc1ccc(C)c(C)c1)B(O)O",
    "PROPERTY_MEASURED": "IC50",
    "DATA_VALUE": "< 0.05 µM"
  },
  {
    "MOL": "C=C(C)C(=O)N(CC)CC(=O)N[C@@H](Cc1ccccc1)B(O)O",
    "PROPERTY_MEASURED": "IC50",
    "DATA_VALUE": "0.5 to 5 µM"
  },
  {
    "MOL": "C/C=C\\C(=O)N(CC)CC(=O)N[C@@H](Cc1ccc(C)cc1C)B(O)O",
    "PROPERTY_MEASURED": "IC50",
    "DATA_VALUE": "0.05 to 0.5 µM"
  },
  {
    "MOL": "C=CC(=O)N(CC)CC(=O)N[C@@H](Cc1ccc(F)cc1)B(O)O",
    "PROPERTY_MEASURED": "IC50",
    "DATA_VALUE": "0.05 to 0.5 µM"
  }
]

The record that follows has no IC50 shown yet.
Lab note: measured IC50 of C=CC(=O)N(CC(=O)N[C@@H](C[C@H]1COc2c(C)cccc21)B(O)O)c1ccccc1F was 0.05 to 0.5 µM

====

# TESTED_TARGET: human immuno proteasome (LMP7) (Homo sapiens (Human), UniProt P28062)
# PROTOCOL_SUMMARY: Determination of LMP7 activity (fluorescence intensity assay, Suc-LLVY-AMC)
# Type: biochemical
# CONDITIONS: incubation for 20 minutes
# Procedure: Determination of LMP7 Activity: Measurement of LMP7 inhibition is performed in 384 well format based on fluorescence intensity assay. Purified human immuno proteasome (0.25 nM) and serial diluted compounds in DMSO (range of concentrations from 30 μM to 15 pM) or controls are incubated for 20 minutes or 120 minutes (long incubation) at 25° C. in assay buffer containing 50 mM Tris pH 7.4, 0.03% SDS, 1 mM EDTA and 1% DMSO. […]
PROPERTY_MEASURED: IC50

// known answers, use as guide
[
  {
    "COMPOUND": "C=CC(=O)N(CC(=O)N[C@@H](Cc1ccc(C)cc1C)B(O)O)c1ccccc1F [Compound No. 1]",
    "IC50": "< 50 nM"
  },
  {
    "COMPOUND": "C=CC(=O)N(CC(=O)N[C@@H](Cc1ccc(C)cc1C)B(O)O)c1ccc(OC(F)(F)F)cc1 [Compound No. 9]",
    "IC50": "< 50 nM"
  },
  {
    "COMPOUND": "C=CC(=O)N(CC)CC(=O)N[C@@H](Cc1ccc(C)c(C)c1)B(O)O [Compound No. 14]",
    "IC50": "50 to 500 nM"
  },
  {
    "COMPOUND": "C=CC(=O)N(CCC)CC(=O)N[C@@H](Cc1ccc(C)cc1C)B(O)O [Compound No. 6]",
    "IC50": "50 to 500 nM"
  }
]

Given item CC#CC(=O)N(CC)CC(=O)N[C@@H](Cc1ccc(C)cc1C)B(O)O [Compound No. 19] , the value recorded as its IC50 is < 50 nM

Summary for this compound, C=CC(=O)N(CC(=O)N[C@@H](Cc1ccc(C)cc1C)B(O)O)c1ccc(F)cc1 [Compound No. 2] : IC50 is < 50 nM

According to the records, this compound C#CC(=O)N(CC)CC(=O)N[C@@H](Cc1ccc(C)cc1C)B(O)O [Compound No. 12] displays IC50 of < 50 nM

Recorded IC50 (compound C=CC(=O)N(CC(=O)N[C@@H](Cc1ccc(C)cc1C)B(O)O)c1ccccc1 [Compound No. 26] ): < 50 nM

The compound listed as C=CC(=O)N(CC(=O)N[C@@H](Cc1ccc(C)cc1C)B(O)O)c1ccccc1Cl [Compound No. 87] has a reported IC50 of < 50 nM

Record C=CC(=O)N(CC(=O)N[C@@H](Cc1ccc(C)c(C)c1)B(O)O)c1ccccc1 [Compound No. 17] , field IC50: < 50 nM

Lookup result for C=CC(=O)N(c1ccccc1)[C@@H](C)C(=O)N[C@@H](Cc1ccc(C)c(C)c1)B(O)O [Compound No. 48] ; measured IC50: 500 to 5000 nM

Data origin: patent US10669289B2
